Reference source for all entries: PubChem BioAssay (NCI)

system: UACC-257 melanoma; test: NCI tumour cell line growth inhibition, 48 h
MEASUREMENT LABEL: TGI (µM)

Cc1ccc(NC(=O)c2nc(S(C)(=O)=O)oc2-c2ccc(F)cc2)cc1Nc1ccc2ncn(C)c(=O)c2c1 = 3.72
CC(C)OCc1cc(CN2CCN(c3cccc(Cl)c3)CC2)c(O)c2ncccc12 = 9.58
COc1cc2c3c(n(CCCN4CCCNCC4)c(=O)c2cc1OC)-c1cc2c(cc1C3=O)OCO2 = 15.9
C#C[C@]1(O)[C@@H](CO)O[C@@H](n2ccc(N)nc2=O)[C@@H]1O = 8.03
CCOc1cc(/C=C/C(=O)C(C(=O)/C=C/c2ccc(OC(=O)CNc3nnc(C)s3)c(OCC)c2)C(=O)CNc2nnc(C)s2)ccc1OC(=O)CNc1nnc(C)s1 = 9.54

---

Reported TGI is given for each of the following compounds.
tested on: A498 renal; assay: NCI tumour cell line growth inhibition, 48 h
MEASUREMENT LABEL: TGI

CCOC(=O)c1cn(CC)c2ccc3ccsc3c2c1=O = > 100 µM
COc1ccccc1N1C(=O)CSC1c1cc(OC)c(OC)c(OC)c1 (centres undefined) = > 100 µM
O=[N+]([O-])c1ccc(CN=C2NNS(=O)(=O)c3ccccc32)cc1 = > 100 µM
O=C1NC(=O)C(c2ccccc2)=C1Nc1ccccc1 = > 25 µM
CO[C@H]1O[C@@H]2OC3(C)CCC4[C@H](C)CCC([C@H]1C)[C@]42OO3 (some centres undefined) = > 100 µM
N#Cc1c(-c2ccccc2)cc(-c2cccs2)c(C#N)c1N = > 100 µM
CC(Cc1cccc2c1Nc1ccccc1S2)N(C)CCO (centres undefined) = 93.9 µM
COCC12CCC(OC)C34C5CC6(O)C(OC)C=C(C5C6OC(=O)c5ccccc5)C(C(OC)C13)C4N(C)C2 (centres undefined) = > 100 µM
NC(=O)CCc1ccccc1Oc1nccc(-c2c(-c3ccc(F)cc3)ncn2C2CCNCC2)n1 = > 25 µM

---

We begin with a simple list: items and their reported TGI.
test system: MOLT-4 leukemia; assay: NCI tumour cell line growth inhibition, 48 h
MEASUREMENT LABEL: TGI

COc1cc(/C=C/C(=O)c2ccc(F)cc2)ccc1OCCCCCOc1cc2c(cc1OC)C(=O)N1CCCC1C=N2 (stereo not given) = 0.0418 µM
N#Cc1ccc(C(C2C(=O)NC(=O)NC2=O)C2C(=O)NC(=O)NC2=O)cc1 = > 100 µM
O=C(O)c1ccc(Oc2nc3ccccc3s2)cc1 = > 100 µM
O=C1CCSc2nc(-c3ccc4c(c3)OCO4)nn21 = > 10 µM
COC(=O)c1nc(C(=O)OC)c2c([nH]c3ccccc32)c1C(=O)OC = > 100 µM

---

Listed here: items and their measured TGI.
tested on: UACC-257 melanoma; assay: NCI tumour cell line growth inhibition, 48 h
MEASUREMENT LABEL: TGI

Nc1nc(Br)nc2ncn(C3CC(O)C(CO)O3)c12 (stereo not given) = > 100 µM
CCCCCCCCCCCCCCCC(=O)Nc1ccn(C2CCC(COP(=O)(O)OCC3OC(n4cc(F)c(=O)[nH]c4=O)CC3OC(C)=O)O2)c(=O)n1 (stereo not given) = 53.6 µM
C=CCC12CCC(=O)[C@@]1(C)CC=C(O)C2=O (stereo not given in full) = > 100 µM
CN1c2ccccc2C(=O)NC12CCNCC2 = > 100 µM
CN1CCN(c2ccc3[nH]c(C4=C(O)C(=O)[C@@H]5C(=C4O)N=C(CO)N5C)nc3n2)CC1 = > 100 µM
O=C(N/C=C/C=C/Sc1ccccc1)OCc1ccccc1 = 39.5 µM
CC(=O)CC(=O)NC=O = > 100 µM
CC(=O)OCC1OC(OC(C)=O)C(Nc2ncc(-c3ccc(C)cc3)s2)C(OC(C)=O)C1OC(C)=O (stereo not given) = 49.1 µM
O=C(CCN1CCC(CCO)CC1)Nc1ccc2c(c1)C(=O)c1ccc(NC(=O)CCN3CCC(CCO)CC3)cc1C2=O = > 100 µM
C=C(CN1CCN(c2ccccc2C(F)(F)F)CC1)c1ccc(C(=O)Nc2ccccc2N)cc1 = > 62.6 µM

---

tested on: OVCAR-8 ovarian; experiment: NCI tumour cell line growth inhibition, 48 h; in the data active means GI50 below about 0.43 µM; inactive means the rest
Outcomes: 1 = active, -1 = inactive

Oc1ccc(Cc2ccc(O)c(C3CC(c4ccc(Cl)cc4)=NN3)c2)cc1C1CC(c2ccc(Cl)cc2)=NN1 (configuration not stated) = -1
O=C(O)c1cn(C2CC2)c2cc(N3CCN(C(=O)Nc4nc(-c5ccc(Br)cc5)cs4)CC3)c(F)cc2c1=O = -1
CCCOc1ccc(/C=N/Nc2cc(C)nc3ccc(Cl)cc23)cc1 = -1
NCCCNc1nc2ccc(Cl)cc2c2c(=O)c3cc(F)ccc3sc12 = -1
NC(=N\N=C/c1ccc(Cl)cc1Cl)/C(N)=N\N=C/c1ccc(Cl)cc1Cl = -1
N#Cc1c2ccccc2c2nnc3ccccc3n12 = -1
c1ccc(-c2cn(-c3ccccc3)c(-c3ccccc3)n2)cc1 = -1
O=C([O-])CCc1ccccc1.O=C([O-])CCc1ccccc1.O=C([O-])CCc1ccccc1.O=C([O-])CCc1ccccc1.[Mo+2].[Mo+2] = -1
O=C1NC(=O)C(c2ccccc2)=C1Nc1ccccc1 = -1
COc1ccc(/C=C/C(=O)c2ccc(Nc3nc(Nc4ccc(F)cc4)nc(Nc4ccc(Cl)cc4)n3)cc2)cc1 = -1
Brc1ccc(Nc2nc3ccccc3nc2Nc2ccc(Br)cc2)cc1 = -1
O=Cc1ccc(-c2ccc(-c3ccc(C=O)o3)[se]2)o1 = -1
O=c1[nH]c(F)nc2c1ncn2C1OC(CO)C(O)C1O (configuration not stated) = -1
COc1cc(/C=C/C(=O)c2c(C)nc3ccccc3c2C)ccc1OCCCCOc1cc2c(cc1OC)C(=O)N1CCC[C@H]1C=N2 = 1
CCC(C)CC(C)C(=O)c1c(O)ccn(O)c1=O (configuration not stated) = -1
CCN(CC)CC(O)COc1c(Br)c(Br)c(Br)c2c1OC(C)(C)C2 (configuration not stated) = -1
O=C(/C=C/c1nnc2n(Cc3ccccc3)c(=O)c3c4c(sc3n12)CCCC4)c1ccccc1 = 1

---

system: K-562 leukemia; experiment: NCI tumour cell line growth inhibition, 48 h; in the data active = GI50 below about 0.43 µM; inactive = the rest
Labels: Y for active, N for inactive

O=C(O)c1cn(C2CC2)c2cc(N3CCN(C(=O)Nc4nc(-c5ccc(Br)cc5)cs4)CC3)c(F)cc2c1=O = N
CN(CSc1ccc(Cl)cc1)c1ccc(CSc2ccc(Cl)cc2)cc1 = N
CCCCCCc1cc2cc(-c3csc(/C=C/c4ccccc4)n3)c(=O)oc2cc1O = N
O=C(Cc1ccc(Nc2ccnc(C(F)(F)F)c2)cc1)N/N=C/c1ccccc1O = N
O=C(NS(=O)(=O)c1ccc(NC[C@H]2COCCO2)c([N+](=O)[O-])c1)c1ccc(N2CCN(CC3=C(c4ccc(Cl)cc4)CC4(CCC4)CC3)CC2)cc1Oc1cnc2[nH]ccc2c1 = N
CCC(C)(C)[C@H](NC(=O)[C@H]1CCCCN1C)C(=O)N(C)[C@H](C[C@@H](OC(C)=O)c1nc(C(=O)N[C@@H](Cc2ccccc2)C[C@H](C)C(=O)O)cs1)C(C)C = Y
Brc1ccc(Nc2nc3ccccc3nc2Nc2ccc(Br)cc2)cc1 = N
Oc1ccc(Cc2ccc(O)c(C3CC(c4ccc(Cl)cc4)=NN3)c2)cc1C1CC(c2ccc(Cl)cc2)=NN1 (centres undefined) = N
CCN1C(=O)N(CC)C2C1NC(=S)N2/N=C/C=C/c1ccccc1OC (centres undefined) = Y

---

system: SF-539 CNS; assay: NCI tumour cell line growth inhibition, 48 h
MEASUREMENT LABEL: TGI

CN(C)c1ccc(/C=c2\sc3nnc(-c4cccnc4)n3c2=O)cc1 = > 100 µM
COc1cc(/C=C/C(=O)c2ccc(F)cc2)ccc1OCCCCCOc1cc2c(cc1OC)C(=O)N1CCCC1C=N2 (stereo not given) = 0.0301 µM
C=C1c2[nH]c3ccccc3c2CC(C(=O)O)N1C(O)c1ccc(S(=O)(=O)O)cc1 (stereo not given) = > 100 µM
O=C1CCCC2=C1CC1=C(CCCC1=O)N2c1ccc([N+](=O)[O-])cc1 = > 100 µM
CCC(C)(C)[C@H](NC(=O)[C@H]1CCCCN1C)C(=O)N(C)[C@H](C[C@@H](OC(C)=O)c1nc(C(=O)N[C@@H](Cc2ccccc2)C[C@H](C)C(=O)O)cs1)C(C)C = < 0.00167 µM
OCCCc1cnco1 = > 100 µM
NCCCn1c2c(c3ccc([N+](=O)[O-])cc3c1=O)C(=O)c1cc(F)ccc1-2 = 0.101 µM
C=CCC12CCC(=O)[C@@]1(C)CC=C(O)C2=O (stereo not given in full) = > 100 µM
CC[C@@H]1CC[C@@H]2[C@H](CC[C@]3(C)[C@@H](OC(C)=O)CC[C@@H]23)[C@H]1C(=O)OC = 38.3 µM
OCC1OC(n2cnc3c(SCc4ccccc4)ncnc32)C(O)C1O (stereo not given) = > 100 µM
N#Cc1c(-c2ccccc2)cc(-c2cccs2)c(C#N)c1N = > 100 µM
COc1ccc2c(c1)-c1nc(=O)n(CCCN(C)C)c3ccc([N+](=O)[O-])c(c13)N2 = 9.63 µM
CCCCN(CC)CCCCCCCCCCN1CCCc2cc(OC)ccc21 = 9.35 µM
CC(Cc1cccc2c1Nc1ccccc1S2)N(C)CCO (stereo not given) = > 100 µM
N#CC(/C(=N/NC(N)=S)C(=O)Nc1cccc(Cl)c1)c1ccccc1 (stereo not given) = > 100 µM
O=C(/C=C/c1nnc2n(Cc3ccccc3)c(=O)c3c4c(sc3n12)CCCC4)c1ccccc1 = > 100 µM
CCOC(=O)c1cn(CC)c2ccc3ccsc3c2c1=O = > 100 µM
O=C(O)c1ccc(Oc2nc3ccccc3s2)cc1 = > 100 µM
[N-]=[N+]=CC(=O)OCC1NC(=O)C(COC(=O)C=[N+]=[N-])NC1=O (stereo not given) = > 100 µM
O=C1NC(=O)C2C1C1C=C3c4ccccc4N(c4ccccc4)C32[C@H]2C(=O)NC(=O)[C@@H]12 (stereo not given in full) = > 100 µM
Cc1cc(C)nc(NCCC(O)(P(=O)(O)O)P(=O)(O)O)n1 = > 100 µM
O=C(c1ccccc1)C(Nc1ccc2ccccc2c1)c1ccccc1 (stereo not given) = > 100 µM
O=c1nc2c(c(-c3ccc(F)cc3)[nH]1)COC/C2=C\c1ccc(F)cc1 = > 100 µM
CC(C)CC(NC=O)C(=O)NC(Cc1ccccc1)NC(=O)CNC(=O)C(C)NC(=O)C(N)Cc1ccc(O)cc1 (stereo not given) = > 100 µM
N#C/C(=C\c1ccc(F)cc1)n1nc2cccc(F)c2n1 = 11.1 µM
S=C(Nc1ccc2c(c1)oc1ccccc12)c1cccs1 = > 100 µM
Cc1cccc2c1c(=O)c1c(O)cc3c(c1n2C)C=CC(C)(C)O3 = > 100 µM
C/C1=C/C[C@@H](/C(C)=C/c2csc(C)n2)OC(=O)C[C@H](O)C(C)(C)C(=O)[C@H](C)[C@@H](O)[C@@H](C)CCC1 = < 0.0001 µM
COc1ccc2[nH]c3c4c(cc(-c5ccccc5)c3c2c1)C(=O)N(c1ccccc1)C4=O = 16.5 µM
CCCNCC(O)CNc1ccc(NCC(O)CNCCC)c2c1C(=O)c1ccccc1C2=O (stereo not given) = 5.11 µM
O=C(Oc1c(Br)cc(Br)cc1C(=O)Oc1ccccc1)C(=O)Oc1c(Br)cc(Br)cc1C(=O)Oc1ccccc1 = 51.8 µM
O=C(O)c1cccc(OCCOc2cccc(C(=O)O)c2[N+](=O)[O-])c1[N+](=O)[O-] = > 100 µM
COc1cc2cc3c4cc(OC)c(OC)cc4cc[n+]3c(C)c2cc1OC = > 100 µM
C/C(=C\CNc1ncnc2c1ncn2CCC(=O)OC(C)(C)C)CO = > 100 µM
C=C(CN1CCN(c2ccccc2C(F)(F)F)CC1)c1ccc(C(=O)Nc2ccccc2N)cc1 = 41.7 µM
O=C(NS(=O)(=O)c1ccc(NC[C@H]2COCCO2)c([N+](=O)[O-])c1)c1ccc(N2CCN(CC3=C(c4ccc(Cl)cc4)CC4(CCC4)CC3)CC2)cc1Oc1cnc2[nH]ccc2c1 = 4.03 µM
CS(=N)(=O)CCC(N)P(=O)(O)O (stereo not given) = > 100 µM
CCCCCCCc1cscc1-c1cscc1Br = > 100 µM
CC(=O)N=c1ccc2nc(N)nn(O)c-2c1 = > 100 µM
CCN(CC)CC(O)COc1c(Br)c(Br)c(Br)c2c1OC(C)(C)C2 (stereo not given) = 16.4 µM
